# credit: patent US11560391B2

Molecular target: NLRP3 inflammasome (Homo sapiens)
Construct: freshly isolated from human peripheral blood from healthy donors; StemCells Technologies; host or cells: primary human PBMCs
Sequence (Q96P20 whole entry): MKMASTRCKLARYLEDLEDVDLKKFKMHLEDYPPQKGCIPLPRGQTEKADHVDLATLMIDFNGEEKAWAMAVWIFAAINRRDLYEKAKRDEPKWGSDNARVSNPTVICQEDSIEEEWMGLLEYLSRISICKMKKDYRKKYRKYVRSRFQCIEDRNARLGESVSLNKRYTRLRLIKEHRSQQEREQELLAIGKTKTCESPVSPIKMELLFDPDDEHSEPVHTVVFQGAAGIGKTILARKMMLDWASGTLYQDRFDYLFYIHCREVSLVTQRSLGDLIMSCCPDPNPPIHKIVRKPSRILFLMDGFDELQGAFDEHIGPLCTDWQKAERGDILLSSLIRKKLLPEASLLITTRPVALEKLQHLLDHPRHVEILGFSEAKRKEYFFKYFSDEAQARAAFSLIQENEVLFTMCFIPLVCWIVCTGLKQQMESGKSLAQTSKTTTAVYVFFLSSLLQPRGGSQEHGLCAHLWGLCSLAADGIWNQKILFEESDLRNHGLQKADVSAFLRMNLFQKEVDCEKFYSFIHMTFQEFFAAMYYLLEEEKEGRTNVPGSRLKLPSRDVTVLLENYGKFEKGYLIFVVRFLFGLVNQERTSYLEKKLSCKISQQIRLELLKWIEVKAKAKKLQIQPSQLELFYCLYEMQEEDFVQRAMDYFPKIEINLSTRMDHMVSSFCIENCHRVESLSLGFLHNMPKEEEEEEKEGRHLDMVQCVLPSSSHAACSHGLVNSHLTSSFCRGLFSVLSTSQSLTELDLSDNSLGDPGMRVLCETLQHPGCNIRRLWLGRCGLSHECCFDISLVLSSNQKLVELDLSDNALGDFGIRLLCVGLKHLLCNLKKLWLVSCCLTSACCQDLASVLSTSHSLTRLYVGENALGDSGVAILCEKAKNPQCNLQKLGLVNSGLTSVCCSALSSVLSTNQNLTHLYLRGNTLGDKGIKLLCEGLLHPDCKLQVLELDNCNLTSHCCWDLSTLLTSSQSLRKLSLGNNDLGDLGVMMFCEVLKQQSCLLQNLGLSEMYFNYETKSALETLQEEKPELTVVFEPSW
Test: NLRP3 inflammasome activation assay in LPS-primed, nigericin-stimulated PBMCs, IL-1β release
Assay type: cell-based
Conditions: LPS 100 ng/mL priming, 10 μM nigericin; read-out: IL-1B pIC50 (converted)
Let's look at some compounds and their measured IC50.

Some compounds with known IC50 results, for comparison:
compound | systemTested | IC50
CC(C)(C)c1cc(C(C)(C)C)nc(NC(=O)NS(=O)(=O)c2cnn3c2OCCC3)n1 [drawing 387] | NLRP3 inflammasome (Homo sapiens) | > 10 µM
O=C(NN1CCCCCC1)NS(=O)(=O)c1cnn2c1OCCC2 [drawing 379] | NLRP3 inflammasome (Homo sapiens) | > 10 µM

Input: Tell us which IC50 value is on record for CC(C)c1ncc2c(c1NC(=O)NS(=O)(=O)c1cnn3c1OCCC3)CCC2 [drawing 422]
Output: > 10 µM

Input: Tell us which IC50 value is on record for CC(C)c1cncc(C(C)C)c1NC(=O)NS(=O)(=O)c1cnn2c1OCCC2 [drawing 393]
Output: 0.1 to 1 µM

Input: Tell us which IC50 value is on record for CC(C)c1ccnc(C(C)C)c1NC(=O)NS(=O)(=O)c1cnn2c1OCCC2 [drawing 397]
Output: 1 to 10 µM

====

Tested on: THP-1 ASC-GFP cells
Assay: THP-1 ASC-GFP speck assay (NLRP3 inflammasome activation, nigericin)
Type: cell-based
Settings: THP1-ASC-GFP; PMA-differentiated, LPS primed, 10 μM nigericin
Let's look at some molecules and their measured pIC50.
pIC50 field: float, defined as -log10 of concentration (mol/L).

molecule | endpoint | endpointValue
CC(C)c1cc(C(F)(F)F)nc(C(C)C)c1NC(=O)NS(=O)(=O)c1cnn2c1OCCC2 | pIC50 | 6.21
CC(C)c1cc(C#N)nc(C(C)C)c1NC(=O)NS(=O)(=O)c1cnn2c1OCCC2 | pIC50 | 5.60
CC(C)c1cc(C(F)(F)F)nc(C(C)C)c1NC(=O)NS(=O)(=O)c1cnn2c1OC[C@@H](N(C)C)C2 [Example 76a] | pIC50 | 6.25
CN[C@@H]1COc2c(S(=O)(=O)NC(=O)Nc3c(C(C)C)nn(C(F)(F)F)c3C(C)C)cnn2C1 [Example 64a] | pIC50 | 6.62
CC(C)c1nn(CC(F)(F)F)c(C(C)C)c1NC(=O)NS(=O)(=O)c1cnn2c1OCCC2 | pIC50 | 6.70

Next up:
Input: Tell us which pIC50 value is on record for CN[C@@H]1COc2c(S(=O)(=O)NC(=O)Nc3c(C(C)C)nn(CC(F)F)c3C(C)C)cnn2C1 [Example 70a]
Output: 5.39
